# experimentNotes: Cytotoxicity, colorimetric tetrazolium assay
# Assay type: cell-based
# assayConditions: mouse, NIH/3T3 cells (CRL-1658), one hour with compound in serum-free media
Quick list: EC50 at 1 h per entry.
resultType: EC50 at 1 h

substanceSmiles	resultType	result
N=C(N)NCCCCC(=O)Nc1cc(C(F)(F)F)cc(NC(=O)Nc2ccc(Oc3cc(NCCN)cc(C(F)(F)F)c3)cc2)c1SCCN	EC50 at 1 h	52.6 µg/mL
N=C(N)NCCCC(=O)Nc1cc(C(F)(F)F)cc(NC(=O)Nc2ccc3nc(-c4ccc(NCCCN)cc4)sc3c2)c1SCCN	EC50 at 1 h	50.7 µg/mL
N=C(N)NCCCCC(=O)Nc1cc(C(F)(F)F)cc(NC(=O)Nc2ccc(Oc3cc(NCCCN)cc(C(F)(F)F)c3)cc2)c1SCCN	EC50 at 1 h	49.4 µg/mL
N=C(N)NCCCCC(=O)Nc1cc(C(F)(F)F)cc(NC(=O)Nc2ccc(Oc3cc([N+](=O)[O-])cc(C(F)(F)F)c3)cc2)c1O[C@@H]1CCNC1	EC50 at 1 h	> 1000 µg/mL
N=C(N)NCCCCC(=O)Nc1cc(C(F)(F)F)cc(NC(=O)Nc2ccc(Oc3cc(NCCN)cc(C(F)(F)F)c3)cc2)c1O[C@@H]1CCNC1	EC50 at 1 h	82.7 µg/mL
N=C(N)NCCCCC(=O)Nc1cc(C(F)(F)F)cc(NC(=O)Nc2ccc(Oc3ccc(NCCN)c(C(F)(F)F)c3)c(CCCN)c2)c1O[C@@H]1CCNC1	EC50 at 1 h	256 µg/mL
N=C(N)NCCCCC(=O)Nc1cc(C(F)(F)F)cc(NC(=O)Nc2ccc(Oc3cc([N+](=O)[O-])cc(C(F)(F)F)c3)cc2)c1SCCN	EC50 at 1 h	56.2 µg/mL
N=C(N)NCCCCC(=O)Nc1cc(C(F)(F)F)cc(NC(=O)Nc2ccc(Oc3cc(N)cc(C(F)(F)F)c3)cc2)c1SCCN	EC50 at 1 h	36.7 µg/mL
NCCCc1cc(NC(=O)Nc2ccc(SCCN)c(C(F)(F)F)c2)ccc1Oc1ccc(NCCN)c(C(F)(F)F)c1	EC50 at 1 h	160 µg/mL
N=C(N)NCCCCC(=O)Nc1cc(C(F)(F)F)cc(NC(=O)Nc2ccc3nc(NC(=O)Nc4cc(C(F)(F)F)cc(NC(=O)CCCCNC(=N)N)c4SCCN)sc3c2)c1SCCN	EC50 at 1 h	50.1 µg/mL
NCCCc1cc(NC(=O)Nc2cc(C(F)(F)F)c(SCCN)cc2SCCN)ccc1Oc1ccc(NCCN)c(C(F)(F)F)c1	EC50 at 1 h	142 µg/mL
N=C(N)NCCCCC(=O)Nc1cc(C(F)(F)F)cc(NC(=O)Nc2ccc3nc(NC(=O)Nc4cc(C(F)(F)F)cc(NC(=O)CCCCNC(=N)N)c4O[C@@H]4CCNC4)sc3c2)c1O[C@@H]1CCNC1	EC50 at 1 h	52.5 µg/mL
N=C(N)NCCCCC(=O)Nc1cc(C(F)(F)F)cc(NC(=O)Nc2ccc(Oc3ccc(NCCN)c(C(F)(F)F)c3)c(CCCN)c2)c1SCCN	EC50 at 1 h	186 µg/mL
NCC#Cc1cc(-n2ccc3cc([N+](=O)[O-])ccc32)cc(C(F)(F)F)c1	EC50 at 1 h	43.3 µg/mL
